The reported measurements were obtained from ChEMBL document CHEMBL5505952.

Test system: SARS-CoV-2
Test: Antiviral activity against VSV-S pseudotyped SARS-CoV-2 infected in human Calu-3 cells assessed as inhibition of viral growth
Type: functional, organism-based
Conditions: Severe acute respiratory syndrome coronavirus 2, Calu-3
pEC50: −log10 of the molar value. *1 amine or outer side, *2 acyl side, *3 side chain or, on linkers, in order; H or OH if unused. Where a SMILES comes first, the peptide text is derived from it. [ ]: non-standard residue; d: D form. X1 = N=C(N)NCCC[C@H](N[*:1])C(=O)c1nc2ccc(C(=O)[*:2])cc2s1
Please note: 1 (yes) applies when pEC50 is 9 or greater, and 0 (no) applies otherwise.

Molecule | Class
CS(=O)(=O)N[C@@H](CCC(N)=O)C(=O)N[C@@H](Cc1ccccc1)C(=O)N[C@@H](CCCNC(=N)N)C(=O)c1nc2ccccc2s1 | 0 (no)
CC[C@@H](C)[C@H](NC(C)=O)C(=O)N[C@@H](CCC(N)=O)C(=O)N[C@@H](Cc1ccccc1)C(=O)N[C@@H](CCCNC(=N)N)C(=O)c1nc2ccccc2s1 | 0 (no)
CC(=O)N[C@@H](CO)C(=O)N[C@@H](CCCCN)C(=O)N[C@@H](CC(C)C)C(=O)N[C@@H](CCCNC(=N)N)C(=O)c1nc2ccccc2s1 | 0 (no)

Does pEC50 meet or surpass 9 for "CC(=O)N[C@H]1CC(=O)NCCCC[C@@H](C(=O)N[C@@H](CCCNC(=N)N)C(=O)c2nc3ccccc3s2)NC(=O)[C@H](CC(C)C)NC1=O" ?
0 (no)

Answer whether pEC50 of "CC(=O)NCC(=O)N[C@@H](CCC(N)=O)C(=O)N[C@@H](Cc1ccccc1)C(=O)N[C@@H](CCCNC(=N)N)C(=O)c1nc2ccccc2s1" is greater than or equal to 9.
1 (yes)

Does the molecule "CC(=O)N[C@@H](CCC(N)=O)C(=O)N[C@@H](Cc1ccccc1)C(=O)N[C@@H](CCCNC(=N)N)C(=O)c1nc2ccccc2s1" have recorded pEC50 that is 9 or more?
1 (yes)

Can CC(=O)N[C@@H](CO)C(=O)N[C@@H](CCCCN)C(=O)N[C@@H](CC(C)C)C(=O)N[C@@H](CCCNC(=N)N)C(=O)c1nc2ccc(C(=O)N[C@H](C(N)=O)C(C)C)cc2s1 (Ac-SKL[X1]V-NH2) be said to have pEC50 at or above 9?
0 (no)

---

Test system: SARS-CoV-2
Assay type: functional, organism-based
Details: Severe acute respiratory syndrome coronavirus 2, USA-WA1/2020, Huh-7
Metric: IC50 (µM)
Expressed in µM, but write only the number.

Write down IC50 measured for item N=C(N)NCCCCC(=O)Nc1cc(C(F)(F)F)cc(NC(=O)c2cc(C(=O)Nc3cc(C(F)(F)F)cc(NC(=O)CCCCNC(=N)N)c3O[C@@H]3CCNC3)ncn2)c1O[C@@H]1CCNC1 [BRILACIDIN]
12

---

The following are reported IC50 results, target or system 1-phosphatidylinositol 3-phosphate 5-kinase (Homo sapiens, UniProt Q9Y2I7).
Note: unit nM is implicit; provide only the numeric part.

Worked cases, IC50 given:
Structure smiles | IC50 (nM)
Nc1ncc2c(n1)Cc1c([nH]c3ccc(-c4ccc(F)cc4)cc13)CC2 | 9.3
CCC(O)(CC)c1ccc2[nH]c3c(c2c1)Cc1nc(N)ncc1CC3 | 1.8

Continue with the molecule presented below.
Report IC50 from 1-phosphatidylinositol 3-phosphate 5-kinase (Homo sapiens, UniProt Q9Y2I7) testing of "CN(C)Cc1ccc2[nH]c3c(c2c1)Cc1nc(N)ncc1CC3"
6.9

---

1-phosphatidylinositol 3-phosphate 5-kinase (Homo sapiens) data, read-out pKd
Sequence (Q9Y2I7 whole entry): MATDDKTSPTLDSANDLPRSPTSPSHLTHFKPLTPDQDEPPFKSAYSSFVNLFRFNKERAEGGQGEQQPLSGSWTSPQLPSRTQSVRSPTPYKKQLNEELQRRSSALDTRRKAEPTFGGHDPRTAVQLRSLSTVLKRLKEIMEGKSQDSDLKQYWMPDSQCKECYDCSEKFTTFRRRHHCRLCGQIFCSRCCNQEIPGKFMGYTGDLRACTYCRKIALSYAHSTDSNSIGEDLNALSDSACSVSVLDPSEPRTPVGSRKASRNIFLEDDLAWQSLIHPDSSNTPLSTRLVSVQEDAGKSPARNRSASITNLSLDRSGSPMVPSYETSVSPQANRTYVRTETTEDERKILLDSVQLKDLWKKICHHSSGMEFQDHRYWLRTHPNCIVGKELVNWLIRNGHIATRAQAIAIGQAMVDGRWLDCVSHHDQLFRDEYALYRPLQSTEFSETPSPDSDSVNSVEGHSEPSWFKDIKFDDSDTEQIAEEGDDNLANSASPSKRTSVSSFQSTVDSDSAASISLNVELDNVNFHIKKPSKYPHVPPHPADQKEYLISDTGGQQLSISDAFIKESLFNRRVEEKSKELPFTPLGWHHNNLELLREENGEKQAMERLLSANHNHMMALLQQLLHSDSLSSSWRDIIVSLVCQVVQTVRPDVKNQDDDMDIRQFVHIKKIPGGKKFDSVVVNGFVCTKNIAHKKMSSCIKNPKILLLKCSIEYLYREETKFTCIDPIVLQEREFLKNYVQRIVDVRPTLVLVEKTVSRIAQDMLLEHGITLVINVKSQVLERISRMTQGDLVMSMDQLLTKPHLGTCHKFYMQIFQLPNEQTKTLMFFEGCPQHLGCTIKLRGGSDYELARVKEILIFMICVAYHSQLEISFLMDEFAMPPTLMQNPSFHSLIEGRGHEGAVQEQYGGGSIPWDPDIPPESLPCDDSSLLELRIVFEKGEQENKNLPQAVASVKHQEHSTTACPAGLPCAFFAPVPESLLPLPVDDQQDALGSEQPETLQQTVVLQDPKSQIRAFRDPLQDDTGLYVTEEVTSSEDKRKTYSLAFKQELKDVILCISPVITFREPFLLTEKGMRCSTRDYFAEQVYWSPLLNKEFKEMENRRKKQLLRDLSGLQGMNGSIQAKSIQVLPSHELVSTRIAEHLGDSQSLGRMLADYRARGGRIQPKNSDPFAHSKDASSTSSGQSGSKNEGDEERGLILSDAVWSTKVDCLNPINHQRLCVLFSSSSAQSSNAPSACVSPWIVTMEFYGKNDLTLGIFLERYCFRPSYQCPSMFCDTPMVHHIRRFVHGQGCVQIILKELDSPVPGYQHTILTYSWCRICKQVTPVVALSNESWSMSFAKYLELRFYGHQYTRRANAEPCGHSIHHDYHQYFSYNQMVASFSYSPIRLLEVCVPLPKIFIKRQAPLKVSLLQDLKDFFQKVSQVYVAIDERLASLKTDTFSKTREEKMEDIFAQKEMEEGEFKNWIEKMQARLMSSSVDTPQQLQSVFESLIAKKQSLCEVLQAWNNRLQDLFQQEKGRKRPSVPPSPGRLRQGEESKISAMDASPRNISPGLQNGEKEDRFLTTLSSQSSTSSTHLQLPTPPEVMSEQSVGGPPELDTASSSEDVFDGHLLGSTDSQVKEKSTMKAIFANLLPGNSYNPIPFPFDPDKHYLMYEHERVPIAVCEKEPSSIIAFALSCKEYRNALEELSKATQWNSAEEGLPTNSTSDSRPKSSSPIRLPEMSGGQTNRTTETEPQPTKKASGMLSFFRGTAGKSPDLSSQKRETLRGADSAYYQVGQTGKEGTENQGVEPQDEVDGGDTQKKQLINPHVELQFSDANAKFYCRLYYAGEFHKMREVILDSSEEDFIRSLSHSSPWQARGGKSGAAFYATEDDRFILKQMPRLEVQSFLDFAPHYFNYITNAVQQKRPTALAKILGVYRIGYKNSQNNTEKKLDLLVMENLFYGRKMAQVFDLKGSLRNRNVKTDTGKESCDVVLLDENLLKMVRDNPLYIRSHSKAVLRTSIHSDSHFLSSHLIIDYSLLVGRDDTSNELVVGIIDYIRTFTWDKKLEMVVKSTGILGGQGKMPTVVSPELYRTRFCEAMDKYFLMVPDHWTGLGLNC
Scale: pKd equals -log10([C]), with [C] in mol/L.

Structure smiles | Assayed system | pKd
Ic1cccc(/C=N/Nc2nc(N3CCOCC3)nc(N(c3ccccc3)c3ccccc3)n2)c1 | 1-phosphatidylinositol 3-phosphate 5-kinase (Homo sapiens) | 7.49

Tell me its pKd on 1-phosphatidylinositol 3-phosphate 5-kinase (Homo sapiens): "C1=Nc2ccccc2/C1=C\NNc1nc(Nc2ccccc2)nc(N2CCOCC2)n1"
9.04

---

Test system: SARS-CoV-2
Assay type: functional, organism-based
Conditions: Severe acute respiratory syndrome coronavirus 2, Huh-7
Where a SMILES comes first, the peptide text is derived from it. The star is where a group is joined. Cbz = O=C(OCc1ccccc1)*
Metric: EC50 (nM)
Quick reminder: number only, in nM, skip the unit.

Name the recorded EC50 of the item CC(C)C[C@@H](C=O)NC(=O)[C@H](CC(C)C)NC(=O)[C@H](CC(C)C)NC(=O)OCc1ccccc1 [MG-132] (Cbz-Leu-Leu-Leu-aldehyde) in your answer.
210

---

Tested on: SARS-CoV-2
Assay: microbe, parasite or virus in culture
Details: Severe acute respiratory syndrome coronavirus 2, Huh-7
Where a SMILES comes first, the peptide text is derived from it. [ ]: non-standard residue; d: D form. Nle = CCCC[C@H](N)C(=O)O
Metric: EC50

Molecule | EC50
CCCCCCCCCC(=O)N[C@@H](Cc1c[nH]c2ccccc12)C(=O)N[C@H](CC(N)=O)C(=O)N[C@@H](CC(=O)O)C(=O)N[C@@H]1C(=O)NCC(=O)N[C@@H](CCCN)C(=O)N[C@@H](CC(=O)O)C(=O)N[C@H](C)C(=O)N[C@@H](CC(=O)O)C(=O)NCC(=O)N[C@H](CO)C(=O)N[C@@H]([C@H](C)CC(=O)O)C(=O)N[C@@H](CC(=O)c2ccccc2N)C(=O)O[C@@H]1C | 207 µM

Name the recorded EC50 of the molecule listed here: "CC(=O)N[C@@H](CC(C)C)C(=O)N[C@@H](CC(C)C)C(=O)N[C@H](C=O)CCCNC(=N)N"
39.3 µM

Fill in reported EC50 for this entry: CCCC[C@@H](C=O)NC(=O)[C@H](CC(C)C)NC(=O)[C@H](CC(C)C)NC(C)=O (Ac-Leu-Leu-[Nle]-aldehyde)
3.12 µM

Specify measured EC50 for "C[C@H](NC(=O)[C@H](Cc1ccccc1)NC(=O)OCc1ccccc1)C(=O)CF" .
701 µM

---

Tested on: SARS-CoV-2
Assay type: functional, organism-based
Details: Severe acute respiratory syndrome coronavirus 2, Vero C1008, 72 h
Metric: EC50
The reply should read as a number followed by its unit.

Structure smiles | EC50
COc1ccc(C(=O)Nc2cccc(C(F)(F)F)c2)cc1Nc1nc(-c2cccnc2)c2[nH]ccc2n1 | 0.0093 µM

// next entry
Report measured EC50; entry is "Cc1ccc(NC(=O)c2cccc(C(F)(F)F)c2)cc1Nc1nc(-c2ccncc2)c2[nH]ccc2n1"
12.3 µM

---

System: SARS-CoV-2
Assay type: functional, organism-based
Details: Severe acute respiratory syndrome coronavirus 2, Huh-7
Where a SMILES comes first, the peptide text is derived from it. The star is where a group is joined. Cbz = O=C(OCc1ccccc1)*
Metric: pEC50
pEC50 here: minus log base 10 of the concentration, concentration in moles per litre.

Record excerpt, results attached:
Compound | pEC50
C[C@H](NC(=O)[C@H](Cc1ccccc1)NC(=O)OCc1ccccc1)C(=O)CF | 5.02
CC(=O)N[C@@H](CC(C)C)C(=O)N[C@@H](CC(C)C)C(=O)N[C@H](C=O)CCCNC(=N)N | 4.98

Would you kindly look at the next entry?
Assign pEC50 to the following record: CC(C)C[C@@H](C=O)NC(=O)[C@H](CC(C)C)NC(=O)[C@H](CC(C)C)NC(=O)OCc1ccccc1 [MG-132] (Cbz-Leu-Leu-Leu-aldehyde)
6.67

---

Tested on: SARS-CoV-2
Assay: Antiviral activity against SARS-CoV-2 WA1/2020 infected in human Calu-3 cells preincubated for 2 hrs followed by viral infection and measured after 48 hrs by microscopy analysis
Format: functional, organism-based
Conditions: Severe acute respiratory syndrome coronavirus 2, WA1/2020, Calu-3
Metric: IC50 (nM)
Give the value, in units of nM, as a plain number.

Look up and state reported IC50 for "CC(=O)N1CCC[C@H]1C(=O)N[C@@H](CCC(N)=O)C(=O)N[C@@H](Cc1ccccc1)C(=O)N[C@@H](CCCNC(=N)N)C(=O)c1nc2ccccc2s1"
105

Note down IC50 recorded for "CC(=O)N[C@H]1CC(=O)NCCCC[C@@H](C(=O)N[C@@H](CCCNC(=N)N)C(=O)c2nc3ccccc3s2)NC(=O)[C@H](CC(C)C)NC1=O"
660

Give IC50 for "CC[C@@H](C)[C@H](NC(C)=O)C(=O)N[C@@H](CCC(N)=O)C(=O)N[C@@H](Cc1ccccc1)C(=O)N[C@@H](CCCNC(=N)N)C(=O)c1nc2ccccc2s1"
102

Given the compound "CC(=O)NCC(=O)N[C@@H](CCC(N)=O)C(=O)N[C@@H](Cc1ccccc1)C(=O)N[C@@H](CCCNC(=N)N)C(=O)c1nc2ccccc2s1" , write its reported IC50.
74

In one line, give reported IC50 of the entry "CC(=O)N[C@@H](CCC(N)=O)C(=O)N[C@@H](Cc1ccccc1)C(=O)N[C@@H](CCCNC(=N)N)C(=O)c1nc2ccccc2s1" .
52
